target.entity: ACVR1B (Homo sapiens, UniProt P36896)
Sequence (P36896 whole entry): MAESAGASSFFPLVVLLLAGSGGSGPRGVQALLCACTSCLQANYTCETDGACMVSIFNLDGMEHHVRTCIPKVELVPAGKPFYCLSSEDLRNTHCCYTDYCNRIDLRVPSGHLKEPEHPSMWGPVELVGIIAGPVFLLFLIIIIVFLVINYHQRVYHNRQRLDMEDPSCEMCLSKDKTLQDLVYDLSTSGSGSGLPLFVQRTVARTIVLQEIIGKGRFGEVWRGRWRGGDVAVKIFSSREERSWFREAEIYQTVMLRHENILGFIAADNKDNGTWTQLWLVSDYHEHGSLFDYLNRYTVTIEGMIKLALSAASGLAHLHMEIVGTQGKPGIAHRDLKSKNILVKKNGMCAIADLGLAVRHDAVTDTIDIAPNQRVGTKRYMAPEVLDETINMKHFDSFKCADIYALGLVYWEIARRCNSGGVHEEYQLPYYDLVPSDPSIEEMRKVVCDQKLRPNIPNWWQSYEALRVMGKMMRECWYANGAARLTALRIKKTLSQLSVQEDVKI
procedure.details: biochemical
Set-up: species or system HEK293/K-562/placenta mixed human extract; Kinobeads chemoproteomic competition binding, quantified by TMT LC-MS/MS, dose response up to 20 uM
measured.endpoint: IC50

IC50 of COc1nc(N[C@H]2CC[C@H](NS(=O)(=O)CC(C)C)CC2)nc2[nH]nc(N3CCOC[C@H]3C)c12 , assay on ACVR1B (Homo sapiens, UniProt P36896), is ≥ 20 µM

* * *

target.entity: CAMK2B (Homo sapiens, UniProt Q13554)
Sequence (Q13554 whole entry): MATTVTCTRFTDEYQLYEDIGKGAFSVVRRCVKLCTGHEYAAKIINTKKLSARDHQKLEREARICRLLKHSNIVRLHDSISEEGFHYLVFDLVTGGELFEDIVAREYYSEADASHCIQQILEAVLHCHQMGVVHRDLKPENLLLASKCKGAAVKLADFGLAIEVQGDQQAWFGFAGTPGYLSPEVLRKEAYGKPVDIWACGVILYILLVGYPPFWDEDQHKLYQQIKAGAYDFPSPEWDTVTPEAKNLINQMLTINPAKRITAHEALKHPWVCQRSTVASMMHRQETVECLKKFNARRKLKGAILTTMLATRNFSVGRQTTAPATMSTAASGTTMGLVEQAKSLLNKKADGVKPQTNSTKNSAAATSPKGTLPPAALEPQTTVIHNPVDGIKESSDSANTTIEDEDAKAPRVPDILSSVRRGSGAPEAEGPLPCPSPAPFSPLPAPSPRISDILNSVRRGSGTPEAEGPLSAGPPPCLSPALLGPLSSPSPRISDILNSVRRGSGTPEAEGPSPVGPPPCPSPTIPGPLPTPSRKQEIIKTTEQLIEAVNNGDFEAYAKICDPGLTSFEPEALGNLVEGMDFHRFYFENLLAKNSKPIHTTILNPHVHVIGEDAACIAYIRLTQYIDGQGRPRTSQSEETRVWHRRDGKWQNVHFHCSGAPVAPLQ
procedure.details: biochemical
Parameters: species or system HEK293/K-562/placenta mixed human extract; Kinobeads chemoproteomic competition binding, quantified by TMT LC-MS/MS, dose response up to 20 uM
pIC50: −log10 of the molar value.
measured.endpoint: pIC50

Please fill in: pIC50 reported for COc1ccccc1-c1n[nH]c2nc(N[C@H]3CC[C@H](NS(=O)(=O)CCC(F)(F)F)CC3)nc(OC)c12 = ≤ 4.70
